Tgt: CD3 on 293T-CD3 cells
Sequence (chain, as listed by the source): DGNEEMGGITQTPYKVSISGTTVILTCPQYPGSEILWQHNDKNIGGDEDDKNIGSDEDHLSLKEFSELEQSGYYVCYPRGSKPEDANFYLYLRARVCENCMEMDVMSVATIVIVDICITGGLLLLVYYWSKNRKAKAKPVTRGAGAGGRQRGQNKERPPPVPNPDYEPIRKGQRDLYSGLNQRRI
Test Method Notes: flow cytometry on 293T-CD3 cells

{"Binder": "CD3 Ab01 (antibody, human IgG1, kappa, V domains shown, also called humanized anti-CD3 monoclonal antibody) VH: EVQLVESGGGLVQPGGSLRLSCAASGFTFNTYAMNWVRQAPGKGLEWVARIRSKYNNYATYYADSVKDRFTISRDDSKNSLYLQMNSLKTEDTAVYYCVRHGNFGNSYVSWFAYWGQGTLVTVSA VL: QAVVTQEPSLTVSPGGTVTLTCRSSTGAVTTSNYANWVQQKPGQAPRGLIGGTNKRAPWTPARFSGSLLGGKAALTLSGAQPEDEAEYYCALWYSNLWVFGGGTKLTVLR", "EC50": "22.6 nM"}
